targetOrSystem: T1, human CD3ed (human, UniProt P07766 23-126; P04234 22-105, limits assumed)
T1 construct: The construct injected as 'human CD3ed' in the Biacore assay is not defined; also called human CD3 epsilon/delta heterodimer
T1 sequence (P07766 23-126 limits assumed, chain 1 of 2): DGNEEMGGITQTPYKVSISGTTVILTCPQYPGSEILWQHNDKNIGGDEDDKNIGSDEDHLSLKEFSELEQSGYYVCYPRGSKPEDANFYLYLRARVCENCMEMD
T1 sequence (P04234 22-105 limits assumed, chain 2 of 2): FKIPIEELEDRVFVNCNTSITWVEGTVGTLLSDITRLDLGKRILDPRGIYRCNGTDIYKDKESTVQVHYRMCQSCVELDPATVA
assayInfo: SPR Biacore T200, IgG captured on protein A, antigen as analyte, 25 C;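 note: antigens flowed over a CM3 chip for 120 s association, KD derived from ka and kd, running buffer (ACES, NaCl, Tween20, pH 7.4) served as blank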
# kon values compiled below
readoutLabel: kon (M⁻¹ s⁻¹)

{"binder": "dBBDu_186 / dBBDu_L098 (antibody, human IgG1, V domains shown, Tested as IgG (human IgG1 constant region, kappa light chain); also called dBBDu186/L098) VH: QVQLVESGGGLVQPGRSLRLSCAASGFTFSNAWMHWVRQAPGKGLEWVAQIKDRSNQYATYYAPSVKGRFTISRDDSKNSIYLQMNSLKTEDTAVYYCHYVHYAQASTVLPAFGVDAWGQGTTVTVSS VL: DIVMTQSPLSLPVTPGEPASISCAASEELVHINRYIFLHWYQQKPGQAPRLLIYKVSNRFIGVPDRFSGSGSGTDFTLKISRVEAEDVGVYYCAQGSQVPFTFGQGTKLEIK", "testResult": 11100}
{"binder": "dBBDu_193 / dBBDu.L132 (antibody, human IgG1, V domains shown, Tested as IgG (human IgG1 constant region, kappa light chain); also called dBBDu193/L132; dBBDu_193/L132) VH: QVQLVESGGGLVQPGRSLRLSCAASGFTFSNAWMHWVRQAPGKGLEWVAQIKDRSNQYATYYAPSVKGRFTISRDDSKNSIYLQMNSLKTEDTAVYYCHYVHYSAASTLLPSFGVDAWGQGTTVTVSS VL: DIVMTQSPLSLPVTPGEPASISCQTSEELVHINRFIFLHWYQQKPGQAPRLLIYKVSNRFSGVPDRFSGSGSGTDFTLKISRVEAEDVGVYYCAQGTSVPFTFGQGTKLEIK", "testResult": 9890}
{"binder": "dBBDu_183 / dBBDu_L067 (antibody, human IgG1, V domains shown, Tested as IgG (human IgG1 constant region, kappa light chain); also called dBBDu183/L067) VH: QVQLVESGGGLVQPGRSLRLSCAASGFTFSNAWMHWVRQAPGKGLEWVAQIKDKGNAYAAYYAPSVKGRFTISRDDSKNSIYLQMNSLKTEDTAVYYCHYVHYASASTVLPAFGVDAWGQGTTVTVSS VL: DIVMTQSPLSLPVTPGEPASISCQSSESLVHVNRHTYLHWYQQKPGQAPRLLIYKVYNRFPGVPDRFSGSGSGTDFTLKISRVEAEDVGVYYCAQGTSVPFTFGQGTKLEIK", "testResult": 88900}
{"binder": "dBBDu_183 / dBBDu_L072 (antibody, human IgG1, V domains shown, Tested as IgG (human IgG1 constant region, kappa light chain); also called dBBDu183/L072; H183L072) VH: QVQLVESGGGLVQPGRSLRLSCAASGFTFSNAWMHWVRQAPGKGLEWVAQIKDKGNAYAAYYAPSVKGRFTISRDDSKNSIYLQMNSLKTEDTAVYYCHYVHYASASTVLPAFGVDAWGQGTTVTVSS VL: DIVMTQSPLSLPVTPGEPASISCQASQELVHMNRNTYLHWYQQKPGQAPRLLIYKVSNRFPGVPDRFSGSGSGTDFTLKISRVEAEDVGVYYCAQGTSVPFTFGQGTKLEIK", "testResult": 36100}
{"binder": "dBBDu_167 / dBBDu_L091 (antibody, human IgG1, V domains shown, Tested as IgG (human IgG1 constant region, kappa light chain); also called dBBDu167/L091) VH: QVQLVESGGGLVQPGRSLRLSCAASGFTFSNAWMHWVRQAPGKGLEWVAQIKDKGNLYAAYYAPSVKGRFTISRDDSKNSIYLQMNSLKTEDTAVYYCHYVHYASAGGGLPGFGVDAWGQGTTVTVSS VL: DIVMTQSPLSLPVTPGEPASISCSASESLLHNNRHTYLHWYQQKPGQAPRLLIYRVSNRFNGVPDRFSGSGSGTDFTLKISRVEAEDVGVYYCGQGTQVPFTFGQGTKLEIK", "testResult": 52400}
